Target: D(2) dopamine receptor (Homo sapiens)
Assay: Displacement of [3H]-spiperone from human D2 receptor expressed in Sf9 cells assessed as inhibition constant
Parameter: Ki (nM)
Provide only the numeric value, understood in nM.

(Q) Look up and report measured Ki for this entry: CC(C)Oc1cccnc1N(C)C1CCN(Cc2ccc(I)cc2)CC1
(A) 568

###

Molecular target: D(2) dopamine receptor (Homo sapiens, UniProt P14416)
Sequence (P14416 whole entry): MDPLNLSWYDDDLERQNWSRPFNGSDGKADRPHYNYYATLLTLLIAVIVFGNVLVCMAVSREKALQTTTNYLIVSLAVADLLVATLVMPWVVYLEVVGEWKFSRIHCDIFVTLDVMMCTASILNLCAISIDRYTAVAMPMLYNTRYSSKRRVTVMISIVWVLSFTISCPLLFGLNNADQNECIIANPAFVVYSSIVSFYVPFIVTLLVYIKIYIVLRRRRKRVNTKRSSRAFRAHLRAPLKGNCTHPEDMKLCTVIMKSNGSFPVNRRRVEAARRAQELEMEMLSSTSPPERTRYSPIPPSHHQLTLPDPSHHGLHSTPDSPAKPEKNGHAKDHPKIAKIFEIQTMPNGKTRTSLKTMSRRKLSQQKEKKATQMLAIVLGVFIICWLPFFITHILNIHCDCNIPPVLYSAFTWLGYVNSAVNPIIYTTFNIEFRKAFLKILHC
Experiment: Binding affinity to human D2R assessed as inhibition constant
Parameter: pKi
Remember the convention: pKi equals -log10 of concentration in molar.

OCc1[nH]c2ccccc2c1CN1CCN(c2ccccc2)CC1 | 5.68
O/N=C/c1c(CN2CCN(c3ccccc3)CC2)[nH]c2ccccc12 | 5.06

(Q) Using known records, supply pKi for N#Cc1[nH]c2ccccc2c1CN1CCN(c2ccccc2)CC1
(A) 5.31

(Q) Find the measured pKi of CCOC(=O)c1[nH]c2ccc(F)cc2c1CN1CCN(c2ccccc2)CC1 and report it.
(A) 4.66
